- assay_target: human sEH (Homo sapiens)
- Sequence (P34913 whole entry): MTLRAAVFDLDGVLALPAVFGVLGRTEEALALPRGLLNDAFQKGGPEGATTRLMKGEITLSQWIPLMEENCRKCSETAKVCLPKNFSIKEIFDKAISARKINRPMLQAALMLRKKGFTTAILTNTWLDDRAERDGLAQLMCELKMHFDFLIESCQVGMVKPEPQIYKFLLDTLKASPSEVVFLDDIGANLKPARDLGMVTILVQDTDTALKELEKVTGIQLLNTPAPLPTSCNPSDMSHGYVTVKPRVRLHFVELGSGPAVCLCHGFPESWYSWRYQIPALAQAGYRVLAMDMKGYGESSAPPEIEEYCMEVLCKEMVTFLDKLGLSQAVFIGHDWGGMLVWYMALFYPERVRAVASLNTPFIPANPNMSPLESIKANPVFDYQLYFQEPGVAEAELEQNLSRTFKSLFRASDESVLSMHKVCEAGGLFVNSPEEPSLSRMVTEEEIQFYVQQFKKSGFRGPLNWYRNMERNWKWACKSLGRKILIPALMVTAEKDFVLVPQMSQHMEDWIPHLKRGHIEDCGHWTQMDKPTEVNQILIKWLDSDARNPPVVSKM
- assay_name: sEH inhibition IC50, fluorescent-based assay with purified recombinant sEH
reported_property: pIC50
Keep it numeric: pIC50 is minus log10 of the concentration in mol/L.

Query block: Provide human sEH (Homo sapiens) pIC50 reading for NS(=O)(=O)c1ccc(-n2nc(CCCNC(=O)Nc3ccc(C(F)(F)F)cc3)cc2-c2ccccc2)cc1 [OX1] .
Result block: 8.70

* * *

- System: C57B/L6 mice exposed to bleomycin
- assay_name: Example 1: prophylactic treatment of mice exposed to bleomycin (IPF model)
- Type: in vivo, mouse
- cond: day 21; compared to vehicle (Group 2); OX1, OX3, Nintedanib 30 mg/kg QD, Pirfenidone 100 mg/kg BID
reported_property: mean Ashcroft score (lung histology)

mol	recorded_measurement
CNc1nc(C)nc(N[C@H]2CCC[C@@H](C(=O)NCc3ccc(C#N)cc3C(F)(F)F)C2)n1	slightly lower
Cc1ccc(=O)n(-c2ccccc2)c1	slightly lower

Each recorded value in this set is attributed to patent US20220218667A1.
